Test: compounds distorting NS3 helicase fluorescence signal – biochemical, NIH Clinical Collection, artefact control for HCV NS3 helicase inhibitor project (AID 743272);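 further: HCV NS3 helicase with a Cy5 labelled single stranded DNA probe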
Conditions: fluorescence interference counterscreen, HCV NS3 helicase assay; active compounds read low
# note: boundary value 1 maps to not met; fluorescence ratio below it maps to met

Consider the molecule "CCN1CCC[C@H]1CNC(=O)c1cc(S(N)(=O)=O)ccc1OC" . Is its fluorescence ratio strictly less than 1?
met

----------
Tested on: F380Y/beta4
Assay: BK channel mutant inhibitors and activators – cell-based, U2OS BacMam, thallium flux, beta subunits, selectivity assay, profiling panel (AID 1259406);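 further: initial slope of Thallos dye fluorescence rise after thallium is added; log ratio against the mean of 0.3% DMSO vehicle wells on the same plate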
Settings: U2OS BacMam BK variants, at 30 µM
Activity calls are given as the source filed them.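 The calls were made as follows: active = thallium flux through the channel raised or lowered by more than 3 SD from vehicle-only wells, actives on both sides; inactive = the rest.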
Assay Readout: log fold change Tl+ flux

NC(=O)OCC(COC(N)=O)c1ccccc1 : 0.0205 (inactive)

Okay, here is my list. What is log fold change Tl+ flux for each of these?
1. N#Cc1ccc(C(c2ccc(C#N)cc2)n2cncn2)cc1
2. CC(C)c1nc(CN(C)C(=O)N[C@H](C(=O)N[C@@H](Cc2ccccc2)C[C@H](O)[C@H](Cc2ccccc2)NC(=O)OCc2cncs2)C(C)C)cs1
3. C#C[C@]1(O)CC[C@H]2[C@@H]3CCc4cc(OC)ccc4[C@H]3CC[C@@]21C
4. CN(C/C=C/C#CC(C)(C)C)Cc1cccc2ccccc12
5. Nc1nnc(-c2cccc(Cl)c2Cl)c(N)n1
6. Nc1nc(N)nc(-c2cc(Cl)ccc2Cl)n1

1: 0.0185 (inactive); 2: -0.505 (active); 3: 0.0115 (inactive); 4: -0.0252 (inactive); 5: -0.0171 (inactive); 6: -0.00342 (inactive)

Okay, here is my list. What is log fold change Tl+ flux for each of these?
1. CC(C)NCC(O)COc1ccc(CCOCC2CC2)cc1 (configuration not stated)
2. CC(C)(C)NC(=O)[C@@H]1CN(Cc2cccnc2)CCN1C[C@@H](O)C[C@@H](Cc1ccccc1)C(=O)N[C@H]1c2ccccc2C[C@H]1O
3. COc1cc(C)nc(-n2nc(C)cc2OC)n1

["0.0205 (inactive)", "-0.0768 (inactive)", "-0.018 (inactive)"]

Okay, here is my list. What is log fold change Tl+ flux for each of these?
1. COc1cc(C(=O)NC2CCCNC2)cc(OC)c1OC (configuration not stated)
2. CN(CCOc1ccc(NS(C)(=O)=O)cc1)CCc1ccc(NS(C)(=O)=O)cc1

-0.0783 (inactive)
0.0111 (inactive)

----------
Assay: EMT-state selective cytotoxicity in co-culture – imaging, PC-3E GFP, TEM4-18 mCherry, primary screen (AID 1345086);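 further: normalised mesenchymal count divided by normalised epithelial count so high means epithelial killing; cells exposed to compound for 72 h before imaging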
Settings: PC-3E GFP / TEM4-18 mCherry co-culture, imaging cell counts; at 1 µM; actives lie on both sides; counts scaled to control wells, 1 = unselective
The source made the active and inactive calls.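 The calls were made as follows: active = compounds killing one labelled cell type while sparing the other, by normalised counts and ratio limits, not self-fluorescent; inactive = the rest.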
Assay Readout: red/green cell ratio (normalised)

Study these solved cases before continuing.
C=CCc1ccccc1OCC(O)CNC(C)C (stereo not given) : 1 (inactive)
COc1ccc2nc(S(=O)Cc3ncc(C)c(OC)c3C)[nH]c2c1 (stereo not given) : 0.98 (inactive)
O=P(O)(O)C(O)(Cc1cccnc1)P(=O)(O)O : 0.63 (inactive)
OCc1ccccc1O : 1.09 (inactive)
CN1CCCN=C1COC(=O)C(O)(c1ccccc1)C1CCCCC1 (stereo not given) : 1.18 (inactive)
CC(=O)Nc1ccc(S(=O)(=O)Nc2ccc([N+](=O)[O-])cc2)cc1 : 0.81 (inactive)
COc1ccc(CC2c3cc(OC)c(OC)cc3CC[N+]2(C)CCC(=O)OCCCCCOC(=O)CC[N+]2(C)CCc3cc(OC)c(OC)cc3C2Cc2ccc(OC)c(OC)c2)cc1OC (stereo not given) : 0.8 (inactive)
Cc1cc(C)nc(NS(=O)(=O)c2ccc(N)cc2)n1 : 1.29 (inactive)
CN(C/C=C/C#CC(C)(C)C)Cc1cccc2ccccc12 : 1.03 (inactive)
C=C1c2cccc(O)c2C(O)=C2C(=O)[C@]3(O)C(O)=C(C(N)=O)C(=O)[C@@H](N(C)C)[C@@H]3[C@@H](O)[C@H]12 : 0.93 (inactive)

Okay, here is my list. What is red/green cell ratio (normalised) for each of these?
1. O=c1ccc2ccccc2o1
2. CCCCCCOc1ccccc1C(N)=O
3. C[C@H]1c2cccc(O)c2C(O)=C2C(=O)[C@]3(O)C(O)=C(C(N)=O)C(=O)[C@@H](N(C)C)[C@@H]3[C@@H](O)[C@@H]21
4. O=C(O)c1ccccc1O
5. CCCCCCCCCCCCCCCCC(C(=O)O)C(O)(CC(=O)O)C(=O)O (stereo not given)
6. NS(=O)(=O)c1cc2c(cc1Cl)NC(C1CC3C=CC1C3)NS2(=O)=O (stereo not given)

["1.12 (inactive)", "1 (inactive)", "1.48 (inactive)", "1.29 (inactive)", "1.03 (inactive)", "1.29 (inactive)"]
